Form field: inhibition (one value per entry).
species on record: Ovis aries; test: Inhibition of COX in sheep seminal vesicle microsome assessed as reduction in PGE2 concentration at 13 uM relative to control; assay type: microsomes

Smiles structure	inhibition, %
CCCCCC#CC#CC#CCCCCCCC(=O)O	45
CCCC/C=C\C#CC#CCCCCCC(=O)O	51
CCCC/C=C/C#CC#CCCCCC(=O)O	56
CCCCC#CC#CC#CCCCCC(=O)O	55
CCCCC/C=C\CC#CC#CCCCCCC(=O)O	56

---

species on record: Ovis aries; experiment: Inhibition of COX in sheep seminal vesicle microsome assessed as reduction in PGE2 concentration at 6.5 uM relative to control; type: microsomes

Smiles structure	Unit descriptor	inhibition
CCCC/C=C/C#CC#CCCCCC(=O)O	%	44
CCCCC#CC#CC#CCCCCC(=O)O	%	36
CCCCCC#CC#CC#CCCCCCCC(=O)O	%	33
CCCC/C=C\C#CC#CCCCCCC(=O)O	%	36
CCCCC/C=C\CC#CC#CCCCCCC(=O)O	%	40
